The values you see were collected from patent US20220306659A1.

In this section we review reported GI50 values for a set of molecules.
# target: Ba/F3(EGFR^L858R/T790M/C797S) cells (Homo sapiens, UniProt P00533, T790M/C797S/L858R, cells depend on it)
# Sequence (P00533 whole entry T790M/C797S/L858R): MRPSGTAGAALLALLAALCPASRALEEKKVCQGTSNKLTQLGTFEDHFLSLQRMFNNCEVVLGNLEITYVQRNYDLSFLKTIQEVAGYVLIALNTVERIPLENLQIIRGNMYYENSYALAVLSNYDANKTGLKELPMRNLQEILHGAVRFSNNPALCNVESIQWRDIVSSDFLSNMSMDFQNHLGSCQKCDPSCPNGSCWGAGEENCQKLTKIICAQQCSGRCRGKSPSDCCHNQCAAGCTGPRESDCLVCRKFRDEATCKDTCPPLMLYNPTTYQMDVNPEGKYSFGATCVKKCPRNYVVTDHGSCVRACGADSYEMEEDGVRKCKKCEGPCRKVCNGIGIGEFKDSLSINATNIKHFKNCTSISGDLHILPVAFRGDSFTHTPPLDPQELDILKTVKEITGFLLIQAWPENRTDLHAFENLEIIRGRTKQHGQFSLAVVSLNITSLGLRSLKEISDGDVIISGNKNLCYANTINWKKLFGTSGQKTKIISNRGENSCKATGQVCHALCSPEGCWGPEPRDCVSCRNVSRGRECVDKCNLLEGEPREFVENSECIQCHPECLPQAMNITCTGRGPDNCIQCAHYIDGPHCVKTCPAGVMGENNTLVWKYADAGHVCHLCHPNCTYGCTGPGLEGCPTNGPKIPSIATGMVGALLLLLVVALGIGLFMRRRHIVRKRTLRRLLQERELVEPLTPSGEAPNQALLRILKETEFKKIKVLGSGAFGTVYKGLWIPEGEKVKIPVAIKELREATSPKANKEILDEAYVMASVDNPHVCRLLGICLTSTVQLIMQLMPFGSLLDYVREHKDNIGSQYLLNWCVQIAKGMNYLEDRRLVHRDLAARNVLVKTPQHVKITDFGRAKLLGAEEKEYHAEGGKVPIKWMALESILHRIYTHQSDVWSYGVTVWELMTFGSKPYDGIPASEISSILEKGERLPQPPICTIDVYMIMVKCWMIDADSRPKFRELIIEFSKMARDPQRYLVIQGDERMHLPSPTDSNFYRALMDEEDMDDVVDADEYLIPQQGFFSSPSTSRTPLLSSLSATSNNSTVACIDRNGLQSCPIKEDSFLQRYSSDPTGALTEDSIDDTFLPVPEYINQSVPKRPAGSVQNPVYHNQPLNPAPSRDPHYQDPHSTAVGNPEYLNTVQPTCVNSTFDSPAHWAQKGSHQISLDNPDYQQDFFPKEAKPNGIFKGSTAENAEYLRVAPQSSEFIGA
# test details: Assay of activity on Ba/F3 cells (CTG, 72 h)
# Type: cell-based
# condition context: read-out: IC50 (nM) Ba/F3 (EGFR^L858R/T790M/C797S)

| molecule | GI50 |
| --- | --- |
| COc1cc(N2CCC(N3CCN(CC(=O)N4CC(COc5cccc6c5C(=O)N(C5CCC(=O)NC5=O)C6=O)C4)CC3)CC2)ccc1Nc1ncc(Cl)c(Nc2ccccc2P(C)(C)=O)n1 (centres unmarked) | > 300 nM |
| COc1cc(N2CCC(N3CCN(CCCCCCCC#Cc4cccc5c4CN(C4CCC(=O)NC4=O)C5=O)CC3)CC2)c(C)cc1Nc1ncc(Br)c(Nc2ccc3nccnc3c2P(C)(C)=O)n1 (centres unmarked) | 1 to 100 nM |
| COc1cc(N2CCC(N3CCN(CCCCCOc4cccc5c4CN(C4CCC(=O)NC4=O)C5=O)CC3)CC2)c(C)cc1Nc1ncc(Br)c(Nc2ccc3nccnc3c2P(C)(C)=O)n1 (centres unmarked) | 1 to 100 nM |
| COc1cc(N2CCC(N3CCN(CC(=O)N4CCC[C@H]4COc4cccc5c4C(=O)N(C4CCC(=O)NC4=O)C5=O)CC3)CC2)ccc1Nc1ncc(Cl)c(Nc2ccccc2P(C)(C)=O)n1 (some centres unmarked) | > 300 nM |
| COc1cc(N2CCC3(CCN(CCOCC#Cc4cccc5c4CN(C4CCC(=O)NC4=O)C5=O)CC3)CC2)c(C)cc1Nc1ncc(Br)c(Nc2ccc3nccnc3c2P(C)(C)=O)n1 (centres unmarked) | 1 to 100 nM |
| COc1cc(N2CCC(N3CCN(C(=O)C4(C(=O)Oc5cccc6c5C(=O)N(C5CCC(=O)NC5=O)C6=O)CC4)CC3)CC2)ccc1Nc1ncc(Cl)c(Nc2ccccc2P(C)(C)=O)n1 (centres unmarked) | > 300 nM |
| COc1cc(N2CCC(N3CCN(CCOCC#Cc4cccc5c4CN(C4CCC(=O)NC4=O)C5=O)CC3)CC2)ccc1Nc1ncc(Cl)c(Nc2ccccc2P(C)(C)=O)n1 (centres unmarked) | 1 to 100 nM |
| COc1cc(N2CCC(N3CCNCC3)CC2)ccc1Nc1ncc(Cl)c(Nc2ccccc2P(C)(C)=O)n1 | > 300 nM |

---

Measured IC50, listed per entry for reference.
# target: ALK (Homo sapiens, UniProt Q9UM73)
# Sequence (Q9UM73 19-1620): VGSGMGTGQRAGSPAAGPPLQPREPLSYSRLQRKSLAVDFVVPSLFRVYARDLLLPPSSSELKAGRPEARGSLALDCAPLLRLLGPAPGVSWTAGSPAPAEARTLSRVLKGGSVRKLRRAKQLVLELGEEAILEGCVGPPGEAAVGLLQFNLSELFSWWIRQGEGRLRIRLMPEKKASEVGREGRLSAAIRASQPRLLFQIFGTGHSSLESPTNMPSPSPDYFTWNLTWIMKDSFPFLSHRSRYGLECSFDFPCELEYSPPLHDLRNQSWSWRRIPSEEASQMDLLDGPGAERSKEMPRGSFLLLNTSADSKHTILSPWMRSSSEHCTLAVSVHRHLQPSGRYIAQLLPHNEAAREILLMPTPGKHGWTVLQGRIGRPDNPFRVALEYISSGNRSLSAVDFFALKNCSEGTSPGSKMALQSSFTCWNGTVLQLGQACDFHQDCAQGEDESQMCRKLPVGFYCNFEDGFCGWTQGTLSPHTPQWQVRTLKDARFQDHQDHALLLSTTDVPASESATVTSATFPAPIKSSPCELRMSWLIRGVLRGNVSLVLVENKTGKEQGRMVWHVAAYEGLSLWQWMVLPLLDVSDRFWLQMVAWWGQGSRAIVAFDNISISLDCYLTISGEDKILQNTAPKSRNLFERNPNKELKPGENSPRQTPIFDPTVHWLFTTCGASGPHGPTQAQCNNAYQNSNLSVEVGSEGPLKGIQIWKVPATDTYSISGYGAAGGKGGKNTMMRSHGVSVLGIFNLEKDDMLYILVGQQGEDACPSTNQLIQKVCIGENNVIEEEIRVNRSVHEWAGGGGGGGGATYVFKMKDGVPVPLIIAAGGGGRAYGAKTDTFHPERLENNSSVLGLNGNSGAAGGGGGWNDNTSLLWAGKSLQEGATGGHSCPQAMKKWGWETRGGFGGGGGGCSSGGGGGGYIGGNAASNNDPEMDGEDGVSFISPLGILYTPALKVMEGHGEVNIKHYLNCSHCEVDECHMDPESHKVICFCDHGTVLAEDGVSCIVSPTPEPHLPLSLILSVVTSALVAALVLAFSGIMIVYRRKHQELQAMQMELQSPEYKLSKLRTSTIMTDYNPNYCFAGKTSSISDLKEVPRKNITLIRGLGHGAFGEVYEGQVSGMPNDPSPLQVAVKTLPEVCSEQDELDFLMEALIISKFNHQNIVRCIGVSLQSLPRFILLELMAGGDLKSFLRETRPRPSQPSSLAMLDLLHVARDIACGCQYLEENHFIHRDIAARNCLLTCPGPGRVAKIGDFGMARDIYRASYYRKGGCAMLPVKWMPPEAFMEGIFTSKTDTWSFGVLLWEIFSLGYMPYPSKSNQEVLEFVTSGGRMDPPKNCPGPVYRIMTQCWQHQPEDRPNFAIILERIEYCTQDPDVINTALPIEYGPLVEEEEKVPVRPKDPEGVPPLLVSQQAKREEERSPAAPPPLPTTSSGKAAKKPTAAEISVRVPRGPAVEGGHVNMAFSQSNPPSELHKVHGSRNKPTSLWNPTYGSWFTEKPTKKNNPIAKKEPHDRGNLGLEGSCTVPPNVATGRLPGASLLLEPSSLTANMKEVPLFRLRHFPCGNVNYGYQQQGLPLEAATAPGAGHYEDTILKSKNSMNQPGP
# test details: Assay of activity on ALK kinase
# Assay type: biochemical
# condition context: kinase inhibition
outcome measure: IC50

| compound | result |
| --- | --- |
| COc1cc(N2CCC(N3CCN(CC(=O)N4CCC[C@H]4COc4cccc5c4C(=O)N(C4CCC(=O)NC4=O)C5=O)CC3)CC2)ccc1Nc1ncc(Cl)c(Nc2ccccc2P(C)(C)=O)n1 (some centres unmarked) [Compound C109] | 1 to 100 nM |
| COc1cc(N2CCC(N3CCN(CC(=O)N4CC(Oc5cccc6c5C(=O)N(C5CCC(=O)NC5=O)C6=O)C4)CC3)CC2)ccc1Nc1ncc(Cl)c(Nc2ccccc2P(C)(C)=O)n1 (centres unmarked) [Compound C93] | 1 to 100 nM |
| COc1cc(N2CCC(N3CCN(CC(=O)N4CC(COc5cccc6c5C(=O)N(C5CCC(=O)NC5=O)C6=O)C4)CC3)CC2)ccc1Nc1ncc(Cl)c(Nc2ccccc2P(C)(C)=O)n1 (centres unmarked) [Compound C94] | 1 to 100 nM |
| COc1cc(N2CCC(N3CCN(CC(=O)N4CCC(CCOc5cccc6c5C(=O)N(C5CCC(=O)NC5=O)C6=O)CC4)CC3)CC2)ccc1Nc1ncc(Cl)c(Nc2ccccc2P(C)(C)=O)n1 (centres unmarked) [Compound C4] | 1 to 100 nM |
| COc1cc(N2CCC(N3CCN(CCCCC#Cc4ccc5c(c4)CN(C4CCC(=O)NC4=O)C5=O)CC3)CC2)ccc1Nc1ncc(Cl)c(Nc2ccccc2P(C)(C)=O)n1 (centres unmarked) [Compound C192] | 1 to 100 nM |

---

Catalogue of GI50 values
# target: Ba/F3(EGFR^L858R/T790M/C797S) cells (Homo sapiens, UniProt P00533, T790M/C797S/L858R, cells depend on it)
# test details: Assay of activity on Ba/F3 cells (CTG, 72 h)
# Type: cell-based
# condition context: read-out: IC50 (nM) Ba/F3 (EGFR^L858R/T790M/C797S)

| compound | GI50 |
| --- | --- |
| COc1cc(N2CCC(N3CCN(C(=O)CN4CCN(C(=O)COc5cccc6c5C(=O)N(C5CCC(=O)NC5=O)C6=O)CC4)CC3)CC2)ccc1Nc1ncc(Cl)c(Nc2ccccc2P(C)(C)=O)n1 (centres unmarked) | > 300 nM |
| COc1cc(N2CCC(N3CCN(CC(=O)N4CC(F)(F)C[C@H]4C(=O)Nc4cccc5c4CN(C4CCC(=O)NC4=O)C5=O)CC3)CC2)ccc1Nc1ncc(Cl)c(Nc2ccccc2P(C)(C)=O)n1 (some centres unmarked) | > 300 nM |
| COc1cc(N2CCC(N3CCN(CCCCCn4cc(-c5cccc6c5CN(C5CCC(=O)NC5=O)C6=O)cn4)CC3)CC2)ccc1Nc1ncc(Cl)c(Nc2ccccc2P(C)(C)=O)n1 (centres unmarked) | > 300 nM |
| COc1cc(N2CCC(N3CCN(CCCCCCCCCOc4cccc5c4C(=O)N(C4CCC(=O)NC4=O)C5=O)CC3)CC2)ccc1Nc1ncc(Cl)c(Nc2ccccc2P(C)(C)=O)n1 (centres unmarked) | 101 to 200 nM |
| COc1cc(N2CCC(N3CCN(CC(=O)N4CCC(OCC(=O)Nc5cccc6c5CN(C5CCC(=O)NC5=O)C6=O)CC4)CC3)CC2)ccc1Nc1ncc(Cl)c(Nc2ccccc2P(C)(C)=O)n1 (centres unmarked) | > 300 nM |

---

compounds and their reported GI50
# target: Ba/F3(EGFR^L858R/T790M/C797S) cells (Homo sapiens, UniProt P00533, T790M/C797S/L858R, cells depend on it)
# test details: Assay of activity on Ba/F3 cells (CTG, 72 h)
# Assay type: cell-based
# condition context: read-out: IC50 (nM) Ba/F3 (EGFR^L858R/T790M/C797S)
outcome measure: GI50

| compound | result |
| --- | --- |
| COc1cc(N2CCC(N3CCN(CCCCCC#Cc4cccc5c4CN(C4CCC(=O)NC4=O)C5=O)CC3)CC2)ccc1Nc1ncc(Cl)c(Nc2ccccc2P(C)(C)=O)n1 (stereo not shown) | 1 to 100 nM |
| COc1cc(N2CCC(N3CCN(CCCCCC#Cc4cc(F)cc5c4CN(C4CCC(=O)NC4=O)C5=O)CC3)CC2)ccc1Nc1ncc(Cl)c(Nc2ccccc2P(C)(C)=O)n1 (stereo not shown) | 1 to 100 nM |
| COc1cc(N2CCC3(CCN(CCCCCCCOc4cccc5c4C(=O)N(C4CCC(=O)NC4=O)C5=O)CC3)CC2)c(C)cc1Nc1ncc(Br)c(Nc2ccc3nccnc3c2P(C)(C)=O)n1 (stereo not shown) | 101 to 200 nM |
| COc1cc(N2CCC(N3CCN(CC(=O)N4CCC(CCOc5cccc6c5C(=O)N(C5CCC(=O)NC5=O)C6=O)CC4)CC3)CC2)ccc1Nc1ncc(Cl)c(Nc2ccccc2P(C)(C)=O)n1 (stereo not shown) | 101 to 200 nM |
| COc1cc(N2CCC(N3CCN(CC(=O)OCC4(COc5cccc6c5C(=O)N(C5CCC(=O)NC5=O)C6=O)CC4)CC3)CC2)ccc1Nc1ncc(Cl)c(Nc2ccccc2P(C)(C)=O)n1 (stereo not shown) | 101 to 200 nM |
| COc1cc(N2CCC(N3CCN(CCCCC#Cc4ccc(F)c5c4CN(C4CCC(=O)NC4=O)C5=O)CC3)CC2)ccc1Nc1ncc(Cl)c(Nc2ccccc2P(C)(C)=O)n1 (stereo not shown) | 1 to 100 nM |
| COc1cc(N2CCC(N3CCN(CCCCCCCOC4CN(c5cccc6c5C(=O)N(C5CCC(=O)NC5=O)C6=O)C4)CC3)CC2)ccc1Nc1ncc(Cl)c(Nc2ccccc2P(C)(C)=O)n1 (stereo not shown) | > 300 nM |
| COc1cc(N2CCC(N3CCN(CCCCCCCNc4cccc5c4CN(C4CCC(=O)NC4=O)C5=O)CC3)CC2)ccc1Nc1ncc(Cl)c(Nc2ccccc2P(C)(C)=O)n1 (stereo not shown) | 1 to 100 nM |
| COc1cc(N2CCC(N3CCN(CC(=O)NC4CCN(CC(=O)Nc5cccc6c5CN(C5CCC(=O)NC5=O)C6=O)CC4)CC3)CC2)ccc1Nc1ncc(Cl)c(Nc2ccccc2P(C)(C)=O)n1 (stereo not shown) | > 300 nM |
| COc1cc(N2CCC(N3CCN(CC(=O)N4CC(Oc5cccc6c5C(=O)N(C5CCC(=O)NC5=O)C6=O)C4)CC3)CC2)ccc1Nc1ncc(Cl)c(Nc2ccccc2P(C)(C)=O)n1 (stereo not shown) | > 300 nM |
